Experiment: Luminescence Cell-Based Dose Response HTS to Identify Inhibitors of 5'UTR Stem-Loop Driven Prion Protein mRNA Translation in H4 Neuroglioblastoma Cells. [Related pubchem assays: 1827 (Project Summary), 1813 (Primary HTS)]
Assay type: functional
Active and inactive are the calls of the source. No stated cut-off is given here; in the data, actives have a measured EC50 and inactives only a lower limit.
# Lookup of reported EC50 keyed by entry

{"compound": "CCCCC1CCC(c2nc(-c3ccccn3)no2)CC1 (centres undefined)", "EC50": "> 60 µM (not active)"}
{"compound": "O=C(Cc1ccc(N2CCNC2=O)cc1)N1CCCC(Nc2cccc(F)c2)C1 (centres undefined)", "EC50": "2.72 µM (active)"}
{"compound": "CCOc1cccc(N(C(=O)Cc2cccs2)C(C(=O)NC2CCCCC2)c2cccn2C)c1 (centres undefined)", "EC50": "> 120 µM (not active)"}

Turning now to a further record.
Recorded EC50 (compound `CCn1cc(C(=O)N2CCN(c3ccc([N+](=O)[O-])cc3)CC2)c(=O)c2ccc(C)nc21` ): > 120 µM (not active)

Where do these numbers come from? They come from ChEMBL document CHEMBL1201862.
